system: Ca-Ski; experiment: Cytotoxicity against human CaSki cells assessed as reduction in cell growth incubated for 48 hrs by SRB assay; format: functional, cell-based
Could you please report measured IC50 for the items listed next?

{"columns": ["SMILES", "RESULT"],
 "data": [
  ["COc1cc(CN2CCN(c3ccccc3Cl)CC2)c2cc3[n+](cc2c1OC)CCc1cc2c(cc1-3)OCO2.[Cl-]", "< 6 µg/mL"],
  ["COc1cc(CN2CCN(c3ccc(F)cc3)CC2)c2cc3[n+](cc2c1OC)CCc1cc2c(cc1-3)OCO2.[Cl-]", "< 6 µg/mL"]
]}

Kindly consider the entry below.
Input line: API: value(readout= IC50, system= Ca-Ski, query= `COc1cc(CN2CCN(c3ccccc3[N+](=O)[O-])CC2)c2cc3[n+](cc2c1OC)CCc1cc2c(cc1-3)OCO2.[Cl-]` )
Output line: < 6 µg/mL

====

tested on: HeLa; assay: Antiproliferative activity against human HeLa cells assessed as reduction in cell growth incubated for 48 hrs by MTT assay; assay type: functional, cell-based
OUTCOME_MEASURE: pIC50
One number for each entry, as −log10 of the molar value.

Input line: API: value(readout= pIC50, system= HeLa, query= `COc1cc([C@@H]2c3cc4c(cc3[C@@H](NC/C=C/c3ccc(CN5CCN(c6ccc([N+](=O)[O-])cc6)CC5)o3)[C@H]3COC(=O)[C@H]23)OCO4)cc(OC)c1OC` )
Output line: 5.10

// data source = ChEMBL document CHEMBL4385598
